- testMethodNotes: recombinant UMI read abundance after kanamycin selection (control-corrected) (log10(CPM+1)); higher = more efficient recombination; extreme values may be limits of the assay; sequences stand for … in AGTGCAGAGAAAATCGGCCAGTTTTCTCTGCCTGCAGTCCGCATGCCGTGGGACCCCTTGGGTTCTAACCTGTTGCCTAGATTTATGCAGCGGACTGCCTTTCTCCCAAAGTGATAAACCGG…AGGTTGGTTTCACT; site = the 11-nt donor;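 note: IS621 bridge recombinase in Escherichia coli cells against a fixed T5 target plasmid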
We use 1 as the dividing line for recombinant UMI read abundance (log10): on or above the line is Satisfied, below is Not satisfied.

Inquiry: Threshold query (recombinant UMI read abundance (log10) >= 1) on TGGTGACCATGGACCGGTTTTCCCGGTAATCCGTATTTGTC (site TGGTGACCTGA)
Reply text: Not satisfied

Inquiry: Threshold query (recombinant UMI read abundance (log10) >= 1) on CGGATGACATGGACCGGTTTTCCCGGTAATCCGTATTTGCA (site CGGATGACTTG)
Reply text: Satisfied

Inquiry: Threshold query (recombinant UMI read abundance (log10) >= 1) on CACACCTCATGGACCGGTTTTCCCGGTAATCCGTATTTGCC (site CACCCCTCTGG)
Reply text: Satisfied

Inquiry: Threshold query (recombinant UMI read abundance (log10) >= 1) on GGAAAGACATGGACCGGTTTTCCCGGTAATCCGTATTTGCC (site GGAAAGACTGG)
Reply text: Satisfied

Inquiry: Threshold query (recombinant UMI read abundance (log10) >= 1) on TTGCTGTCATGGACCGGTTTTCCCGGTAATCCGTATTTGAT (site TTGCTGTCTAT)
Reply text: Not satisfied

Inquiry: Threshold query (recombinant UMI read abundance (log10) >= 1) on ATGTAGGCATGGACCGGTTTTCCCGGTAATCCGTATTTGCC (site ATGTAGGCTGG)
Reply text: Satisfied

Inquiry: Threshold query (recombinant UMI read abundance (log10) >= 1) on ATTGGTACATGGACCGGTTTTCCCGGTAATCCGTATTTGCG (site ATTGGTACTCG)
Reply text: Satisfied

Inquiry: Threshold query (recombinant UMI read abundance (log10) >= 1) on CGTGGAACATGGACCGGTTTTCCCGGTAATCCGTATTTGAT (site CGTGGAACTAA)
Reply text: Not satisfied

Inquiry: Threshold query (recombinant UMI read abundance (log10) >= 1) on CTATTACCATGGACCGGTTTTCCCGGTAATCCGTATTTGAC (site CTAGTATCTGT)
Reply text: Not satisfied

Inquiry: Threshold query (recombinant UMI read abundance (log10) >= 1) on TAGTGAGCATGGACCGGTTTTCCCGGTAATCCGTATTTGGG (site TACTGAGCTCC)
Reply text: Not satisfied

Inquiry: Threshold query (recombinant UMI read abundance (log10) >= 1) on TCTGCTGCATGGACCGGTTTTCCCGGTAATCCGTATTTGGC (site TCTGCTGCTGC)
Reply text: Not satisfied

Inquiry: Threshold query (recombinant UMI read abundance (log10) >= 1) on ACGACGCCATGGACCGGTTTTCCCGGTAATCCGTATTTGCT (site ACGACGCCTAG)
Reply text: Not satisfied

Inquiry: Threshold query (recombinant UMI read abundance (log10) >= 1) on CTAGCGACATGGACCGGTTTTCCCGGTAATCCGTATTTGCC (site CTAGCGACTGG)
Reply text: Satisfied

Inquiry: Threshold query (recombinant UMI read abundance (log10) >= 1) on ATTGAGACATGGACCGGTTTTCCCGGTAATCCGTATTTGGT (site GTTGAGACTAC)
Reply text: Not satisfied

Inquiry: Threshold query (recombinant UMI read abundance (log10) >= 1) on GATGCAGCATGGACCGGTTTTCCCGGTAATCCGTATTTGTA (site GATGCAGCTTA)
Reply text: Satisfied

Data credit: the supplement of paper PMC11208160
